- Test system: 388556-164-R-J1-PDC complex spheroid viability
- experiment_notes: Anticancer human tumor 388556-164-R-J1-PDC patient-derived colon adenocarcinoma cell line growth inhibition [RAS]
- condition_label: second compound 10 µM; first compound 0.1 µM; stronger effect = lower value
quantity_measured: viability, T/C

CC(Nc1ccc2c(c1)OCCn1cc(N3C(=O)OCC3C(F)F)nc1-2)C(N)=O (stereo not drawn) + C#Cc1c(F)ccc2cc(O)cc(-c3ncc4c(N5CC6CCC(C5)N6)nc(OCC56CCCN5CC(F)C6)nc4c3F)c12	57.2%

Which measured viability, T/C value corresponds to CC(=O)OC12COC1CC(O)C1(C)C(=O)C(O)C3=C(C)C(OC(=O)C(O)C(NC(=O)OC(C)(C)C)c4ccccc4)CC(O)(C(OC(=O)c4ccccc4)C21)C3(C)C (stereo not drawn) + C#Cc1c(F)ccc2cc(O)cc(-c3ncc4c(N5CC6CCC(C5)N6)nc(OCC56CCCN5CC(F)C6)nc4c3F)c12 ?
48.2%

Which measured viability, T/C value corresponds to CCC(CC)c1cc(NC2CCC(N)C2)n2nccc2n1 (stereo not drawn) + C#Cc1c(F)ccc2cc(O)cc(-c3ncc4c(N5CC6CCC(C5)N6)nc(OCC56CCCN5CC(F)C6)nc4c3F)c12 ?
65.6%

###

List of viability, T/C values.
- System: 388556-164-R-J1-PDC complex spheroid viability
- experiment_notes: Anticancer human tumor 388556-164-R-J1-PDC cell line growth inhibition [RAS];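 further: spheroids exposed to compound for 7 days before readout; 100% = DMSO vehicle control luminescence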
- condition_label: second compound 0.03 µM; first compound 0.01 µM; stronger effect = lower value
Field: numeric (%). Do not append units.

Study these solved cases before continuing.
CC(C)n1nc(-c2ccc3oc(N)nc3c2)c2c(N)ncnc21 + CCn1c(-c2cccnc2C(C)OC)c2c3cc(ccc31)N1CCOC(CC(NC(=O)C(C(C)C)N(C)C(=O)C3(F)CCN(C(=O)C#CC(C)(C)N(C)C)CC3)C(=O)N3CCCC(N3)C(=O)OCC(C)(C)C2)C1	82.5
Nc1ccn(C2OC(CO)C(O)C2(F)F)c(=O)n1 (stereo not given) + CCn1c(-c2cc(N3CCN(C)CC3)cnc2C(C)OC)c2c3cc(ccc31)-c1csc(n1)CC(NC(=O)C1CC1C)C(=O)N1CCCC(N1)C(=O)OCC(C)(C)C2	53.4
CCN1CCN(Cc2ccc(Nc3ncc(F)c(-c4cc(F)c5nc(C)n(C(C)C)c5c4)n3)nc2)CC1 + CCn1c(-c2cc(N3CCN(C)CC3)cnc2C(C)OC)c2c3cc(ccc31)-c1csc(n1)CC(NC(=O)C1CC1C)C(=O)N1CCCC(N1)C(=O)OCC(C)(C)C2	64.4
CC(C)n1nc(-c2ccc3oc(N)nc3c2)c2c(N)ncnc21 + CCn1c(-c2cc(N3CCN(C)CC3)cnc2C(C)OC)c2c3cc(ccc31)-c1csc(n1)CC(NC(=O)C1CC1C)C(=O)N1CCCC(N1)C(=O)OCC(C)(C)C2	37.6

Which measured viability, T/C value corresponds to C=CC(=O)Nc1cc(Nc2nccc(-c3cn(C)c4ccccc34)n2)c(OC)cc1N(C)CCN(C)C + CCn1c(-c2cc(N3CCN(C)CC3)cnc2C(C)OC)c2c3cc(ccc31)-c1csc(n1)CC(NC(=O)C1CC1C)C(=O)N1CCCC(N1)C(=O)OCC(C)(C)C2 ?
50.8

Which measured viability, T/C value corresponds to O=C(c1ccc(F)c(F)c1Nc1ccc(I)cc1F)N1CC(O)([C@@H]2CCCCN2)C1 + CCn1c(-c2cc(N3CCN(C)CC3)cnc2C(C)OC)c2c3cc(ccc31)-c1csc(n1)CC(NC(=O)C1CC1C)C(=O)N1CCCC(N1)C(=O)OCC(C)(C)C2 ?
45.8

Which measured viability, T/C value corresponds to Nc1ccn(C2OC(CO)C(O)C2(F)F)c(=O)n1 (stereo not given) + CCn1c(-c2cccnc2C(C)OC)c2c3cc(ccc31)N1CCOC(CC(NC(=O)C(C(C)C)N(C)C(=O)C3(F)CCN(C(=O)C#CC(C)(C)N(C)C)CC3)C(=O)N3CCCC(N3)C(=O)OCC(C)(C)C2)C1 ?
92.7

Which measured viability, T/C value corresponds to O=C(c1ccc(F)c(F)c1Nc1ccc(I)cc1F)N1CC(O)([C@@H]2CCCCN2)C1 + CCn1c(-c2cccnc2C(C)OC)c2c3cc(ccc31)N1CCOC(CC(NC(=O)C(C(C)C)N(C)C(=O)C3(F)CCN(C(=O)C#CC(C)(C)N(C)C)CC3)C(=O)N3CCCC(N3)C(=O)OCC(C)(C)C2)C1 ?
98.1

Which measured viability, T/C value corresponds to C=CC(=O)N1CCN(c2nc(OCC3CCCN3C)nc3c(F)c(-c4nc(N)cc(C)c4C(F)(F)F)c(Cl)cc23)C(C)C1 (stereo not given) + CCn1c(-c2cc(N3CCN(C)CC3)cnc2C(C)OC)c2c3cc(ccc31)-c1csc(n1)CC(NC(=O)C1CC1C)C(=O)N1CCCC(N1)C(=O)OCC(C)(C)C2 ?
68.7

Which measured viability, T/C value corresponds to C=CC(=O)Nc1cc(Nc2nccc(-c3cn(C)c4ccccc34)n2)c(OC)cc1N(C)CCN(C)C + CCn1c(-c2cccnc2C(C)OC)c2c3cc(ccc31)N1CCOC(CC(NC(=O)C(C(C)C)N(C)C(=O)C3(F)CCN(C(=O)C#CC(C)(C)N(C)C)CC3)C(=O)N3CCCC(N3)C(=O)OCC(C)(C)C2)C1 ?
96.2

###

- System: 388556-164-R-J1-PDC complex spheroid viability
- experiment_notes: Anticancer human tumor 388556-164-R-J1-PDC cell line growth inhibition [RAS];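 further: spheroids exposed to compound for 7 days before readout; 100% = DMSO vehicle control luminescence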
- condition_label: second compound 0.316 µM; first compound 0.0316 µM; stronger effect = lower value
List of viability, T/C values.
Field: numeric (%). Do not append units.

Study these solved cases before continuing.
CC(Nc1ccc2c(c1)OCCn1cc(N3C(=O)OCC3C(F)F)nc1-2)C(N)=O (centres undefined) + C#Cc1c(F)ccc2cc(O)cc(-c3ncc4c(N5CC6CCC(C5)N6)nc(OCC56CCCN5CC(F)C6)nc4c3F)c12	94.8
C=CC(=O)Nc1cc(Nc2nccc(-c3cn(C)c4ccccc34)n2)c(OC)cc1N(C)CCN(C)C + C#Cc1c(F)ccc2cc(O)cc(-c3ncc4c(N5CC6CCC(C5)N6)nc(OCC56CCCN5CC(F)C6)nc4c3F)c12	80.7
C[C@@H](NC(=O)c1ncnc(N)c1Cl)c1ncc(C(=O)Nc2cc(C(F)(F)F)c(Cl)cn2)s1 + C#Cc1c(F)ccc2cc(O)cc(-c3ncc4c(N5CC6CCC(C5)N6)nc(OCC56CCCN5CC(F)C6)nc4c3F)c12	113
CCC(CC)c1cc(NC2CCC(N)C2)n2nccc2n1 (centres undefined) + C#Cc1c(F)ccc2cc(O)cc(-c3ncc4c(N5CC6CCC(C5)N6)nc(OCC56CCCN5CC(F)C6)nc4c3F)c12	102
CCN1CCN(Cc2ccc(Nc3ncc(F)c(-c4cc(F)c5nc(C)n(C(C)C)c5c4)n3)nc2)CC1 + C#Cc1c(F)ccc2cc(O)cc(-c3ncc4c(N5CC6CCC(C5)N6)nc(OCC56CCCN5CC(F)C6)nc4c3F)c12	81.1
O=C(c1ccc(F)c(F)c1Nc1ccc(I)cc1F)N1CC(O)([C@@H]2CCCCN2)C1 + C=CC(=O)N1CCN(c2nc(OCC3CCCN3C)nc3c(F)c(-c4nc(N)cc(C)c4C(F)(F)F)c(Cl)cc23)C(C)C1	84.5
C=CC(=O)N1CCN(c2nc(OCC3CCCN3C)nc3c(F)c(-c4nc(N)cc(C)c4C(F)(F)F)c(Cl)cc23)C(C)C1 (centres undefined) + C#Cc1c(F)ccc2cc(O)cc(-c3ncc4c(N5CC6CCC(C5)N6)nc(OCC56CCCN5CC(F)C6)nc4c3F)c12	97.4
Cc1nc(N2CCC3(CC2)COC(C)C3N)c(CO)nc1Sc1ccnc(N)c1Cl (centres undefined) + C=CC(=O)N1CCN(c2nc(OCC3CCCN3C)nc3c(F)c(-c4nc(N)cc(C)c4C(F)(F)F)c(Cl)cc23)C(C)C1	97.7

Record lookup: for 388556-164-R-J1-PDC complex spheroid viability, what viability, T/C belongs to C[C@@H](NC(=O)c1ncnc(N)c1Cl)c1ncc(C(=O)Nc2cc(C(F)(F)F)c(Cl)cn2)s1 + C=CC(=O)N1CCN(c2nc(OCC3CCCN3C)nc3c(F)c(-c4nc(N)cc(C)c4C(F)(F)F)c(Cl)cc23)C(C)C1 ?
126

Record lookup: for 388556-164-R-J1-PDC complex spheroid viability, what viability, T/C belongs to CC(=O)OC12COC1CC(O)C1(C)C(=O)C(O)C3=C(C)C(OC(=O)C(O)C(NC(=O)OC(C)(C)C)c4ccccc4)CC(O)(C(OC(=O)c4ccccc4)C21)C3(C)C (centres undefined) + C#Cc1c(F)ccc2cc(O)cc(-c3ncc4c(N5CC6CCC(C5)N6)nc(OCC56CCCN5CC(F)C6)nc4c3F)c12 ?
82.5

Record lookup: for 388556-164-R-J1-PDC complex spheroid viability, what viability, T/C belongs to Nc1ccn(C2OC(CO)C(O)C2(F)F)c(=O)n1 (centres undefined) + C=CC(=O)N1CCN(c2nc(OCC3CCCN3C)nc3c(F)c(-c4nc(N)cc(C)c4C(F)(F)F)c(Cl)cc23)C(C)C1 ?
75.5

Record lookup: for 388556-164-R-J1-PDC complex spheroid viability, what viability, T/C belongs to NC1c2ccccc2OC12CCN(c1cnc3c(N4CCCc5ncccc54)n[nH]c3n1)CC2 (centres undefined) + C#Cc1c(F)ccc2cc(O)cc(-c3ncc4c(N5CC6CCC(C5)N6)nc(OCC56CCCN5CC(F)C6)nc4c3F)c12 ?
63.6

Record lookup: for 388556-164-R-J1-PDC complex spheroid viability, what viability, T/C belongs to Cc1nc(N2CCC3(CC2)COC(C)C3N)c(CO)nc1Sc1ccnc(N)c1Cl (centres undefined) + C#Cc1c(F)ccc2cc(O)cc(-c3ncc4c(N5CC6CCC(C5)N6)nc(OCC56CCCN5CC(F)C6)nc4c3F)c12 ?
89.2

Record lookup: for 388556-164-R-J1-PDC complex spheroid viability, what viability, T/C belongs to CCC(CC)c1cc(NC2CCC(N)C2)n2nccc2n1 (centres undefined) + C=CC(=O)N1CCN(c2nc(OCC3CCCN3C)nc3c(F)c(-c4nc(N)cc(C)c4C(F)(F)F)c(Cl)cc23)C(C)C1 ?
104

Record lookup: for 388556-164-R-J1-PDC complex spheroid viability, what viability, T/C belongs to C=CC(=O)Nc1cc(Nc2nccc(-c3cn(C)c4ccccc34)n2)c(OC)cc1N(C)CCN(C)C + C=CC(=O)N1CCN(c2nc(OCC3CCCN3C)nc3c(F)c(-c4nc(N)cc(C)c4C(F)(F)F)c(Cl)cc23)C(C)C1 ?
103

Record lookup: for 388556-164-R-J1-PDC complex spheroid viability, what viability, T/C belongs to CC(Nc1ccc2c(c1)OCCn1cc(N3C(=O)OCC3C(F)F)nc1-2)C(N)=O (centres undefined) + C=CC(=O)N1CCN(c2nc(OCC3CCCN3C)nc3c(F)c(-c4nc(N)cc(C)c4C(F)(F)F)c(Cl)cc23)C(C)C1 ?
105

Record lookup: for 388556-164-R-J1-PDC complex spheroid viability, what viability, T/C belongs to CC1(O)CCCC1n1c(=O)c(C(F)F)cc2cnc(NC3CCN(S(C)(=O)=O)CC3)nc21 (centres undefined) + C=CC(=O)N1CCN(c2nc(OCC3CCCN3C)nc3c(F)c(-c4nc(N)cc(C)c4C(F)(F)F)c(Cl)cc23)C(C)C1 ?
102

Record lookup: for 388556-164-R-J1-PDC complex spheroid viability, what viability, T/C belongs to Nc1ccn(C2OC(CO)C(O)C2(F)F)c(=O)n1 (centres undefined) + C#Cc1c(F)ccc2cc(O)cc(-c3ncc4c(N5CC6CCC(C5)N6)nc(OCC56CCCN5CC(F)C6)nc4c3F)c12 ?
60.9

Record lookup: for 388556-164-R-J1-PDC complex spheroid viability, what viability, T/C belongs to CC(C)NCC(C(=O)N1CCN(c2ncnc3c2C(C)CC3O)CC1)c1ccc(Cl)cc1 (centres undefined) + C=CC(=O)N1CCN(c2nc(OCC3CCCN3C)nc3c(F)c(-c4nc(N)cc(C)c4C(F)(F)F)c(Cl)cc23)C(C)C1 ?
106
